- Target Or System: T1, IL-2 receptor βγ complex on pan T cells (human, UniProt P14784 27-551; P31785 23-369)
- T1 sequence (looked up) 1: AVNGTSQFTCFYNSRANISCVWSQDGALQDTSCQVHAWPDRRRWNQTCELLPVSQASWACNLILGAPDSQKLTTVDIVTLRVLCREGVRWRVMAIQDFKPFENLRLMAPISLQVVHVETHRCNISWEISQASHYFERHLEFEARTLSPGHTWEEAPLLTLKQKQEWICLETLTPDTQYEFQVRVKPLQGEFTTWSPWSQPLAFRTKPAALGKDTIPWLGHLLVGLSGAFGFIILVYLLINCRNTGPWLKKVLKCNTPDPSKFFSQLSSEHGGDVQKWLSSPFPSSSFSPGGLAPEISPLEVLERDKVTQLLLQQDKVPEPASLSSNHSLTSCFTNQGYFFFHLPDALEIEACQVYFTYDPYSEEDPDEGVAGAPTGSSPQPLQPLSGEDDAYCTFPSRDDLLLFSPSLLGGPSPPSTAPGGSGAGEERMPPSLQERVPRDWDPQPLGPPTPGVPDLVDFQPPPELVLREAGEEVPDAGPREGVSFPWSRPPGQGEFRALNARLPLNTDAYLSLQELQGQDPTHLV
- T1 sequence (looked up) 2: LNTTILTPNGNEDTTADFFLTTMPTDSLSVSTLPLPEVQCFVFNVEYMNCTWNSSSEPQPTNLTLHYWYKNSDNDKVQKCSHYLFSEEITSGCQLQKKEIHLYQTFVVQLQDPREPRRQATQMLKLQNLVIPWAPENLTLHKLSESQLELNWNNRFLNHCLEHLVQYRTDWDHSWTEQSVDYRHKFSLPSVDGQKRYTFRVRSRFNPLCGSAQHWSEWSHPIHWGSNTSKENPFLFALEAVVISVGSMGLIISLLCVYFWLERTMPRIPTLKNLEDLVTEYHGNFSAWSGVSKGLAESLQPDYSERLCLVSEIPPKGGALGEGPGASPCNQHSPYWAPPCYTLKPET
- Measurement Notes: cell-based or functional assay
Primed or numbered codes have the meaning given here. [ ]: non-standard residue; d: D form. Ygp″ = O-(PEG8-amino)-tyrosine (O-(8x polyethylene glycol-amino)-tyrosine); Yn3″ = O-(PEG9-azido)-tyrosine (O-(9x polyethylene glycol-azido)-tyrosine); hSer = N[C@@H](CCO)C(=O)O; Nle = CCCC[C@H](N)C(=O)O
Property Measured: Average EC50, pSTAT5 assay in pan T cells, MMP2 cleaved molecule (nM)
Answer format: numeric, nM implied, no suffix.

Qu. // fetch Average EC50, pSTAT5 assay in pan T cells, MMP2 cleaved molecule given entry CMP-128, MMP2 cleaved (ligand, ends and bridges not checked; also: Lys23 side chain attached via PEG9 to cleavable peptide, MMP2-cleaved, remnant stays attached, cut site not given here) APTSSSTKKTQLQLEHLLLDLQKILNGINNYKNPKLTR[Nle]L[hSer][Yn3″]KF[Ygp″][Nle]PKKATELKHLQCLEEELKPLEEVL[hSer]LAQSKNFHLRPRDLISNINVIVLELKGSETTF[hSer]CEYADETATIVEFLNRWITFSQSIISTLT
Ans. 3.68
